test system: A549/ATCC NSCLC; assay: NCI-60 one-dose screen, 48 h (100 = growth as untreated, 0 = no growth, -100 = all killed); conditions: 10 µM unless noted
This is part of a sample that, as a whole, favours compounds with a hit. Of some 83,000 tested, about 20% had one in any assay.
Task for the reader: assign each of the following compounds its reported growth.
One number for each entry, in %.

As a guide, the following entries are already answered.
COc1cc(NC(=O)c2cncnc2Nc2ccc3c(ccn3Cc3ccccn3)c2)cc(OC)c1 | 53.9
CC1CCN(C(=S)SCC(=O)NC(=O)c2ccccc2)CC1 | 105
CCOC(=O)c1ccccc1-c1c2ccc(=[N+](C)C)cc-2oc2cc(N(C)C)ccc12 | 12

Report growth for each item below.
1. Cc1cccc(-c2nc(Nc3ccc4ncsc4c3)c3ccccc3n2)n1
2. Cn1cc(-c2csc(-c3c[nH]c4ccc(F)cc34)n2)c2ccnc(Cl)c21
3. NS(=O)(=O)c1ccc(NC(=O)/C(=C\c2ccc(Cl)cc2Cl)NC(=O)c2ccccc2)cc1
4. C=C(C)[C@@H]1CC[C@]2(C(N)=O)CC[C@]3(C)[C@H](CC[C@@H]4[C@@]5(C)CC[C@H](OCCC#N)C(C)(C)[C@@H]5CC[C@]43C)[C@@H]12

1: 34.5; 2: 64.3; 3: 105; 4: 74.6
